system tested: STING (Canis lupus familiaris)
assay method text: Dog whole blood (dWB) assay, IFNb secretion by ELISA
run parameters: canine Interferon-beta (IFNb) ELISA, 4 h incubation at 37° C.
property label: EC50 (nM)
Give bare numbers, in nM.

• Cc1c(F)ccc2c(-c3c(F)ccc4nn(C)cc34)nn(-c3ccc(N4C[C@@H]5[C@H](C4)[C@H]5C(=O)O)nc3)c12 = 666

For the 2 compounds below, give their EC50 values.
1. Cc1cc(F)cc2c(-c3c(F)ccc4nn(C)cc34)nn(-c3ccc(N4C[C@@H]5[C@H](C4)[C@H]5C(=O)O)nc3)c12
2. Cc1cccc2c(-c3c(F)cc(F)c4nn(C)cc34)nn(-c3ccc(N4CC[C@H](CC(=O)O)C4)nc3)c12

Out:
391
261

* * *

system tested: STING (Canis lupus familiaris, UniProt A0A8I3MH52)
Sequence (A0A8I3MH52 1-374): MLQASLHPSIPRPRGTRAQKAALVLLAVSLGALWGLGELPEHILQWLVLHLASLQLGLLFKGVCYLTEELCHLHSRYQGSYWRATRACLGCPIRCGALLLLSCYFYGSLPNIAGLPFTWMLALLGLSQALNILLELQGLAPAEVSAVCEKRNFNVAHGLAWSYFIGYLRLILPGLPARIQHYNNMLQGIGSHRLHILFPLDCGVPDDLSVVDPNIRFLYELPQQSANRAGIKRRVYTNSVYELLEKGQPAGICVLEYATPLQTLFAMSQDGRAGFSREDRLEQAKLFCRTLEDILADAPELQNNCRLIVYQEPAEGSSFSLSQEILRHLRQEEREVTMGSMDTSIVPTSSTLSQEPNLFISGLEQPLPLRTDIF
assay method text: Dog whole blood (dWB) assay, IFNb secretion by ELISA
run parameters: canine Interferon-beta (IFNb) ELISA, 4 h incubation at 37° C.
Consider the following molecules; for each one, report its pEC50.
One number for each entry, as −log10 of the molar value.

See these solved cases before continuing.
- Cc1cccc2c(-c3cccc4nn(C)c(F)c34)nn(-c3ccc(N4CC[C@@H](CC(=O)O)C4)nc3)c12: 6.57
- CC(=O)N1C[C@H]2C[C@@H]1CN2c1ccc(-n2nc(-c3cccc4nn(C)c(F)c34)c3cccc(C)c32)cn1: 6.61
- Cc1cccc2c(-c3c(F)ccc4nn(C)cc34)nn(-c3ccc(N4C[C@@H]5C[C@H]4C[C@H]5C(=O)O)nc3)c12: 6.68
- Cc1cccc2c(-c3cccc4nn(C)c(F)c34)nn(-c3ccc(N4CC5CCC4CC5C(=O)O)nc3)c12 (single isomer, unassigned) [Example 20-3]: 6.71
- Cc1cccc2c(-c3ccc(F)c4nn(C)c(F)c34)nn(-c3ccc(N4CC[C@H](CC(=O)O)C4)nc3)c12: 6.70
- CC(=O)N1CCN(c2ccc(-n3nc(-c4cccc5nn(C)c(F)c45)c4cccc(C)c43)cn2)CC1: 6.77
- Cc1cccc2c(-c3c(F)ccc4nn(C)cc34)nn(-c3ccc(N4C[C@@H]5[C@H](C4)[C@H]5C(=O)O)nc3)c12: 6.55
- Cc1cccc2c(-c3ccc(F)c4nn(C)c(F)c34)nn(-c3ccc(N4C[C@@H]5[C@H](C4)[C@H]5C(=O)O)nc3)c12: 6.76
- Cc1cccc2c(-c3ccc(F)c4nn(C)cc34)nn(-c3ccc(N4C[C@@H]5[C@H](C4)[C@H]5C(=O)O)nc3)c12: 6.14
- Cc1cccc2c(-c3cccc4nn(C)c(F)c34)nn(-c3ccc(N4C[C@@H]5C[C@H]4C[C@H]5C(=O)O)nc3)c12: 6.63

For the 3 molecules below, give their pEC50 values.
1. Cc1cccc2c(-c3c(F)cc(F)c4nn(C)cc34)nn(-c3ccc(N4C[C@@H]5C[C@H]4C[C@H]5C(=O)O)nc3)c12 (single isomer, unassigned)
2. CC(=O)N1CCN(c2ccc(-n3nc(-c4c(F)ccc5nn(C)cc45)c4cc(F)cc(C)c43)cn2)CC1
3. Cc1cccc2c(-c3cc(F)cc4nn(C)cc34)nn(-c3ccc(N4C[C@@H]5[C@H](C4)[C@H]5C(=O)O)nc3)c12

Out:
[6.20, 7.01, 5.48]
